B1: HDV Ribozyme (parent)
chain: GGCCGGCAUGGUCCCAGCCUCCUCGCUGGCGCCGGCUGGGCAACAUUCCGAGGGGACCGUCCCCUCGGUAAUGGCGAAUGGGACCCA

Variants of: B1
Assay: self-cleavage, relative activity (ratio to wild type); higher = more cleavage; co-transcriptional
quantityName: self-cleavage
Keep the answer to the number alone.

G1U G82U    0.389
C3U C62G    0.415
G17U U69C    0.869

Q) Consider the variant G52U A83C and give its measured self-cleavage.
A) 0.259

Q) State the recorded self-cleavage for this entry: C3G G74U
A) 0.189

Q) Which self-cleavage value belongs to U60A ?
A) 1

Q) Item C36U U47A has what recorded self-cleavage?
A) 0.481

Q) # self-cleavage lookup, item C18U A71U
A) 0.724

Q) Dear colleague, I am looking for the recorded self-cleavage of the following variant: A71U C85G
A) 0.587

Q) Requested field: self-cleavage. Item: C3G U79A
A) 0.491

Q) Reported self-cleavage for G1A G40A : what is it?
A) 0.119

Q) Which self-cleavage is listed for G38C G74C ?
A) 0.148

Q) Suppose we examine the variant G54C A77G ; what self-cleavage value has been reported?
A) 0.831

Q) # self-cleavage lookup, item C14A C86U
A) 0.9

Q) For the variant shown here, U9C G54U , give the reported self-cleavage.
A) 0.937

Q) Any idea what self-cleavage was measured for G11A G29C ?
A) 0.123

Q) // returns reported self-cleavage for input G2A C86A
A) 0.172

Q) Returns the measured self-cleavage for the input variant. Input: G1A G35C
A) 0.0723

Q) Looking for the measured self-cleavage of C14A G76U , can you help?
A) 1.27

Q) Record request: self-cleavage value, item A8C U69C
A) 0.831

Q) Endpoint output: self-cleavage of C24G A51C . Value?
A) 0

Q) Look up self-cleavage: C33U G68A
A) 0.796

The reported measurements were obtained from the RNAGym collection of RNA variant scans (doi:10.7554/elife.80360).
